Origin of measurements: PubChem BioAssay AID2153

Target: Guanyl-specific ribonuclease T1 (Aspergillus oryzae (strain ATCC 42149 / RIB 40)) (UniProt P00651)
Sequence (P00651 whole entry, looked up): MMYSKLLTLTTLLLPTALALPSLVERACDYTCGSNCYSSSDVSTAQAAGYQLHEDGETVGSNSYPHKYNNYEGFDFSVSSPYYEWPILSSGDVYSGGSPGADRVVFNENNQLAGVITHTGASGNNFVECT
Assay: RNase T1 inhibitors, counter-screen for TPT1 inhibitor project, biochemical, fluorescence polarization (AID 2153);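 further: inhibitors block cleavage so intact labeled substrate keeps polarization high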
Conditions: RNase T1 cleavage, 1536-well, at 5 µM
The whole screen tested about 2,400 compounds, of which about 2,000 (83%) were called active.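 How the source made its calls: active means inhibition above the solvent-only control well mean plus 3 SD, limit set per screening run (cut at about 23% in these data); inactive means the rest.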 So high a share suggests a set chosen from earlier hits. The list is a sample of the results.
// classify into active, inactive

Solved entries (count: 4):
- Molecule: "CCCCC(=O)N/N=C/c1c(O)n(CC)c(=S)n(CC)c1=O"
  Class Name: "active"
- Molecule: "O=C1NC(=O)N(Cc2ccco2)C(=O)/C1=C\\c1cccn1CCOc1ccccc1"
  Class Name: "inactive"
- Molecule: "O=C1CC(=O)N(Cc2ccccc2)C(=O)N1CCCCCCN1C(=O)CC(=O)N(Cc2ccccc2)C1=O"
  Class Name: "active"
- Molecule: "CCN1C(=O)C(=Cc2c(C)n(CC(=O)NCC3CCCO3)c3ccccc23)C(=O)N(CC)C1=S (stereo not given)"
  Class Name: "active"

Here is another molecule to look at.
Exercise: Hi, do you know how COc1ccccc1N=Nc1c(O)[nH]c(=S)[nH]c1=O came out in this test?
Solution: active
